Here the recorded GI50 is given for each entry.
Test system: SF-295 CNS
Experiment: NCI tumour cell line growth inhibition, 48 h

Below are worked cases with known answers.
*Q* Can you share its GI50? I mean this molecule: CCOC(=O)/C=C/C(C(=O)/C=C/c1ccc(O)c(OC)c1)=C(O)\C=C\c1ccc(O)c(OC)c1
*A* 14.6 µM

*Q* I'd like to know its GI50. The molecule in question is C=CC(=O)N[C@H]1CCOC[C@H]1Nc1ncc2cc(-c3c(Cl)c(OC)cc(OC)c3Cl)ccc2n1
*A* 16 µM

*Q* Value lookup for GI50; key = Cc1c2c[n+](C(C)C)ccc2c(C)c2c1[nH]c1ccccc12
*A* 1.32 µM

*Q* Tell me the measured GI50 of CCN(CCCl)CCCNc1c2ccccc2nc2ccc(OC)cc12 , please.
*A* 308 µM

*Q* Endpoint output: GI50 of O=C(Cc1cccc(OC(F)(F)F)c1)Nc1ccc(CCCCc2nnc(NC(=O)Cc3ccccn3)s2)nn1 . Value?
*A* 11.5 µM

More entries:
*Q* I'd like to know its GI50. The molecule in question is CSc1ccc2c3c(n(C[C@H](O)CO)c(=O)c2c1)-c1ccccc1C3=O
*A* 2.82 µM

*Q* # lookup: GI50 of CO[C@@H]1/C=C(C)/C=C/[C@@H](C)/C=C(\C)C(=O)OC(/C(C)=C/C=C(\C)CNC(=O)[C@H](CO)NC=O)[C@@H](C)/C=C/C=C/[C@H](OC)CC/C=C(C)/C=C/C1 (some centres undefined)
*A* < 0.005 µM

*Q* What value of GI50 has been reported for the following molecule? CCN1c2ccccc2C(Cl)(c2ccc(N(C)C)cc2)c2ccccc21
*A* 21.7 µM

*Q* Field request: GI50 | item: c1ccc(-n2nnnc2-c2cccc3ccccc23)cc1
*A* 0.395 µM

* * *

Tested on: SR leukemia
Experiment: NCI tumour cell line growth inhibition, 48 h
Entries annotated with measured TGI

*Q* Please give the measured TGI for this molecule: Oc1ccc(SCc2cc(O)c(O)c(O)c2)cc1
*A* > 100 µM

*Q* I would be grateful if you could share the reported TGI for O=c1[nH]nc(-c2ccccc2)n1/N=C/c1c(O)ccc2ccccc12 .
*A* > 100 µM

*Q* What value of TGI has been recorded for this entry: COc1cccc(/C=C/c2cnc3ccccc3n2)c1OC
*A* > 100 µM

Continuing:
*Q* # lookup: TGI of O=C(CCCCCCCCC(=O)N1C(=O)CC(=O)N(c2cccc(Cl)c2)C1=S)N1C(=O)CC(=O)N(c2cccc(Cl)c2)C1=S
*A* 67.8 µM

*Q* Would you mind telling me what TGI value was observed for C=CCSC1=N/C(=C\c2ccccc2)C(=O)N1CC=C ?
*A* > 61.6 µM

* * *

System: A498 renal
Assay: NCI tumour cell line growth inhibition, 48 h
This listing pairs compounds with measured TGI.

Worked examples follow.
*Q* Look up TGI: O=[N+]([O-])c1ccc(N=Nc2c(O)c(S(=O)(=O)O)cc3cc(S(=O)(=O)O)ccc23)cc1
*A* > 100 µM

*Q* Data request, read-out TGI, for COC(=O)/C=C(/C(=O)OC)c1c(C)c(C)c2c(C)cc(C)cc(C)c1-2
*A* > 100 µM

*Q* Recorded TGI for Cc1nc2ccc(S(=O)(=O)O)cc2c(=O)n1-c1ccc(C(=O)NN2C(=O)C(Cl)C2c2ccccc2O)cc1 (configuration not stated) , please?
*A* > 100 µM

*Q* Entry O=[Se](=O)c1ccccc1.O=[Se](=O)c1ccccc1.[Cu] : reported TGI = ?
*A* 38 µM

*Q* Which TGI value is on record for COc1cccc(Cc2c3cc(OC)ccc3cc[n+]2C)c1 ?
*A* > 100 µM

*Q* Item under review: COc1ccc(/C(=N/Nc2ccccc2)C(c2ccc(OC)cc2)C2OC(=O)c3ccccc32)cc1 (configuration not stated) . Reported TGI?
*A* > 100 µM

*Q* Quick one: TGI for Oc1ccc(SCc2cc(O)c(O)c(O)c2)cc1 ?
*A* > 100 µM

*Q* Dear colleague, I am looking for the recorded TGI of the following compound: CSc1c(C#N)c(=O)[nH]c2n[nH]c(C)c12
*A* > 100 µM

*Q* Would you mind telling me what TGI value was observed for CCCNC(C#N)c1ccc(C(C#N)NCCC)cc1 (configuration not stated) ?
*A* > 100 µM

*Q* Fill blank: measured TGI of the compound O=C1c2c(n(Cc3ccccc3)c(=O)n2Cc2ccccc2)C(=O)N1Cc1ccccc1 is ____.
*A* > 100 µM

Further cases:
*Q* Given Cc1cc(=O)oc2cc(OCc3c(F)cccc3Cl)ccc12 , state its recorded TGI.
*A* > 100 µM

*Q* Which TGI value is on record for NC1=NC(c2ccc(Cl)cc2)C2=C(N1)/C(=C/c1ccc(Cl)cc1)CCC2 (configuration not stated) ?
*A* 12.6 µM

* * *

Parameter TGI: see the listing below.
Test system: TK-10 renal
Assay: NCI tumour cell line growth inhibition, 48 h
Write the value in µM as a bare number.

Reference set, count: 5
*Q* Value lookup for TGI; key = COc1ccc2nc3cc(Cl)ccc3c(NCCCNCCC(C)O)c2c1 (configuration not stated)
*A* 2.94

*Q* Request the reported TGI associated with NC(=O)C#CC(N)=O
*A* 36.2

*Q* # lookup: TGI of Cc1ccc(-c2cc(C3=CC(=O)C=CC3=O)n(-c3ccc(S(N)(=O)=O)cc3)n2)cc1
*A* 48.7

*Q* Returns the measured TGI for the input molecule. Input: C=C(CC[C@@H](C(=O)O)[C@H]1[C@H](O)C[C@@]2(C)C3=CC[C@@H](C(=C)C)[C@](C)(CCC(=O)O)C3=CC[C@]12C)C(C)C
*A* 32.3

*Q* Query (molecule): CC(C)NC(=O)OCc1c(COC(=O)NC(C)C)c(-c2ccc(Cl)cc2)n2c1CCC2 ; field requested: TGI
*A* 7.97

---
*Q* TGI for CO[C@@H]1CC(=O)C2(CC(=O)O[C@@H]2/C=C(\C)CCC=C(C)C)C[C@@H]1O (some centres not stated) ?
*A* 3.35

*Q* Which measured TGI value corresponds to CCN1c2ccccc2C(Cl)(c2ccc(N(C)C)cc2)c2ccccc21 ?
*A* 29.1

*Q* # lookup: TGI of C=CC1CC12C(=O)C1OC2(C)C2C(=O)c3c(O)ccc(O)c3C(=O)C12 (configuration not stated)
*A* 9.38

* * *

Known TGI of a selection of molecules
Tested on: K-562 leukemia
Assay: NCI tumour cell line growth inhibition, 48 h

Check out these entries, answers already filled in.
*Q* Reported TGI, molecule COc1ccc(-c2ccc(-c3ccc(-c4ccc(C(=N)N)cc4)s3)s2)cc1OC : ____
*A* 5.47 µM

*Q* Find the recorded TGI belonging to C=C1C(=O)O[C@H]2[C@H]1CC/C(COC(=O)CSCC(=O)OC/C1=C/CC[C@@]3(C)O[C@H]3[C@H]3OC(=O)C(=C)[C@@H]3CC1)=C\CC[C@@]1(C)O[C@@H]21 and report it.
*A* 4.06 µM

*Q* Value lookup for TGI; key = CN(C)C(=O)c1cc2cnc(Nc3ccc(-c4csc5c(=O)cc(N6CCOCC6)oc45)cc3)nc2n1C1CCCC1
*A* > 100 µM

*Q* State the recorded TGI for this entry: CC(=O)CCCCO
*A* > 100 µM

*Q* Name the reported TGI value associated with the molecule COc1ccccc1/C=N\N=C(N/N=C/c1ccccc1OC)N/N=C/c1ccccc1OC
*A* 36.4 µM

More entries:
*Q* Any idea what TGI was measured for C=CCC1(O)c2cccc(NCCO)c2C(=O)c2c(NCCO)cccc21 ?
*A* > 100 µM

*Q* Consider the molecule COc1ccc2c(c1)N=C1CSC(c3ccccc3Cl)N1C2 (stereo unspecified) and give its measured TGI.
*A* 75.7 µM

*Q* For CCOC(=O)CNC(=O)C(C)NC(=O)C(NC(=O)CC(c1ncc[nH]1)c1ncc[nH]1)C(C)CC (stereo unspecified) , what is its reported TGI?
*A* > 100 µM

*Q* Please give the measured TGI for this molecule: NC(=O)C(c1ccccc1)N1CCOCC1 (stereo unspecified)
*A* > 100 µM

*Q* What value of measured TGI is listed for CC(C)NC(=O)OCc1c(COC(=O)NC(C)C)c(-c2ccc(Cl)cc2)n2c1CCC2 ?
*A* > 26.1 µM

*Q* Fill blank: measured TGI of the molecule CCN1c2ccccc2C(Cl)(c2ccc(N(C)C)cc2)c2ccccc21 is ____.
*A* 25.7 µM

* * *

Test system: OVCAR-5 ovarian
Assay: NCI tumour cell line growth inhibition, 48 h
measuredProperty: TGI

*Q* Any idea what TGI was measured for COc1ccc(-c2c(N)n(-c3cccc(C(=O)O)c3)c(=O)c3cc([N+](=O)[O-])ccc23)cc1 ?
*A* > 100 µM

*Q* What does the data say about its TGI? Entry: Cc1ccc2c(O)c(O)cc(NC(C)CCCN)c2n1 (centres undefined)
*A* 25.2 µM

*Q* Could you share which TGI value was measured for CO[C@@H]1/C=C(C)/C=C/[C@@H](C)/C=C(\C)C(=O)OC(/C(C)=C/C=C(\C)CNC(=O)[C@H](CO)NC=O)[C@@H](C)/C=C/C=C/[C@H](OC)CC/C=C(C)/C=C/C1 (some centres undefined) ?
*A* 12.5 µM

Turning now to a further molecule:
*Q* Bench note: what TGI did CC(C)(C)C1(COC(=O)c2ccc(N)cc2)COC1 show?
*A* > 100 µM
